Please assign No whenever log10 vapour pressure (mmHg) is at or above -6, and Yes whenever it is below.

log10 vapour pressure (mmHg) under -6? Item: "C/C(=N/Nc1nc(C)cc(C)n1)c1ccccc1C" Yes

log10 vapour pressure (mmHg) under -6? Item: "C1CCCCCCCCC1" No

log10 vapour pressure (mmHg) under -6? Item: "CC(C)Nc1nc(Cl)nc(NC(C)C)n1" Yes

log10 vapour pressure (mmHg) under -6? Item: "CNC(=O)N(C)c1nnc(C(C)(C)C)s1" No

log10 vapour pressure (mmHg) under -6? Item: "O=C1c2ccccc2C(=O)c2c1cccc2[N+](=O)[O-]" Yes

log10 vapour pressure (mmHg) under -6? Item: CCCCC(CC)COP(=O)(OCC(CC)CCCC)OCC(CC)CCCC (configuration not stated) Yes

log10 vapour pressure (mmHg) under -6? Item: "NS(=O)(=O)C(F)(F)C(F)(F)C(F)(F)C(F)(F)C(F)(F)C(F)(F)C(F)(F)C(F)(F)F" No

###

Returns the class for an entry based on its melting point. Class ranges: class A = under 30 °C, class B = from 30 °C up to 100 °C, class C = 100 °C and over

Textbook exercise: identify the category of the compound given here, "CCc1cc(C)cc(C)c1" , according to its measured value. class A

Textbook exercise: identify the category of the compound given here, "CN1[C@@H](CC(=O)c2ccccc2)CCC[C@H]1C[C@H](O)c1ccccc1" , according to its measured value. class C

Textbook exercise: identify the category of the compound given here, "CCCCCCCCCCCC(=O)Cl" , according to its measured value. class A

Textbook exercise: identify the category of the compound given here, "Cc1c(N)cc([N+](=O)[O-])cc1[N+](=O)[O-]" , according to its measured value. class C

Textbook exercise: identify the category of the compound given here, "CS(=O)(=O)c1ccccc1" , according to its measured value. class B

Textbook exercise: identify the category of the compound given here, "COc1cc(CC#N)ccc1O" , according to its measured value. class B

Textbook exercise: identify the category of the compound given here, CC(C)NCC(O)COc1cccc2ccccc12.Cl (centres undefined) , according to its measured value. class C

Textbook exercise: identify the category of the compound given here, "CCCCCCCOC(C)=O" , according to its measured value. class A

Textbook exercise: identify the category of the compound given here, CC(Cl)CCl (centres undefined) , according to its measured value. class A

Textbook exercise: identify the category of the compound given here, "O=C1OC(=O)c2cc(Cl)c(Cl)cc21" , according to its measured value. class C

Textbook exercise: identify the category of the compound given here, "Oc1ccc(Cl)cc1Cc1ccccc1" , according to its measured value. class B

Textbook exercise: identify the category of the compound given here, "O=C(O)COc1cccc(Cl)c1Cl" , according to its measured value. class C

Textbook exercise: identify the category of the compound given here, "Clc1[nH]nc2ccccc12" , according to its measured value. class C

Textbook exercise: identify the category of the compound given here, "Nc1ccn([C@H]2CC[C@@H](CO)O2)c(=O)n1" , according to its measured value. class C

Textbook exercise: identify the category of the compound given here, "CCOC(=O)Cc1cccc2ccccc12" , according to its measured value. class B

Textbook exercise: identify the category of the compound given here, "Oc1cc(O)cc(Cl)c1" , according to its measured value. class C

Textbook exercise: identify the category of the compound given here, "CCC(C)(C)O" , according to its measured value. class A

Textbook exercise: identify the category of the compound given here, "O=C(O)c1cc(-c2ccccc2)nc2ccccc12" , according to its measured value. class C

Textbook exercise: identify the category of the compound given here, "Cc1cc(C)oc(=O)c1" , according to its measured value. class B

Textbook exercise: identify the category of the compound given here, "NS(=O)(=O)c1ccc([N+](=O)[O-])cc1" , according to its measured value. class C

Textbook exercise: identify the category of the compound given here, "Cc1ccc(C)c(C)c1" , according to its measured value. class A

Textbook exercise: identify the category of the compound given here, "O=c1c(O)c(-c2ccc(O)c(O)c2)oc2cc(O)cc(O)c12" , according to its measured value. class C

Textbook exercise: identify the category of the compound given here, "CC(=O)c1c[nH]c2ccccc12" , according to its measured value. class C

Textbook exercise: identify the category of the compound given here, "CCCC(C1CCCCC1)C1CCCCC1" , according to its measured value. class A

Textbook exercise: identify the category of the compound given here, "CCCCCCCCCCC=O" , according to its measured value. class A

Textbook exercise: identify the category of the compound given here, "O=P(N1CC1)(N1CC1)N1CC1" , according to its measured value. class B

Textbook exercise: identify the category of the compound given here, "Clc1ccc2c(c1)C(N1CCNCC1)=Nc1ccccc1O2" , according to its measured value. class C

Textbook exercise: identify the category of the compound given here, "C[C@]12C=CC(=O)C=C1CC[C@@H]1[C@@H]2CC[C@]2(C)OC(=O)CC[C@@H]12" , according to its measured value. class C

Textbook exercise: identify the category of the compound given here, "CCc1nn(CCCN2CCN(c3cccc(Cl)c3)CC2)c(=O)n1CCOc1ccccc1" , according to its measured value. class B

Textbook exercise: identify the category of the compound given here, "O=[N+]([O-])c1cccc2ccccc12" , according to its measured value. class B

Textbook exercise: identify the category of the compound given here, "CC(=O)[C@@]1(O)CC[C@H]2[C@@H]3C[C@H](C)C4=CC(=O)CC[C@]4(C)[C@H]3CC[C@@]21C" , according to its measured value. class C

Textbook exercise: identify the category of the compound given here, "CC1=C(C(=O)O)N2C(=O)[C@@H](NC(=O)[C@H](N)C3=CCC=CC3)[C@H]2SC1" , according to its measured value. class C

Textbook exercise: identify the category of the compound given here, "BrCOCBr" , according to its measured value. class A

Textbook exercise: identify the category of the compound given here, "CC(=O)c1ccc(C)cc1" , according to its measured value. class A

Textbook exercise: identify the category of the compound given here, "CC(=O)Oc1ccccc1C(=O)O" , according to its measured value. class C

Textbook exercise: identify the category of the compound given here, "CCOc1cccc(C=O)c1O" , according to its measured value. class B

Textbook exercise: identify the category of the compound given here, "O=S(=O)(c1ccc(Cl)cc1)c1ccc(Cl)cc1" , according to its measured value. class C

Textbook exercise: identify the category of the compound given here, "CCNc1ccccc1" , according to its measured value. class A

Textbook exercise: identify the category of the compound given here, "CCCCCCCCCC#N" , according to its measured value. class A

Textbook exercise: identify the category of the compound given here, FC(F)(F)C(Cl)Br (centres undefined) , according to its measured value. class A

Textbook exercise: identify the category of the compound given here, "NC1CCCC1" , according to its measured value. class A

Textbook exercise: identify the category of the compound given here, "CC(=O)c1cccc([N+](=O)[O-])c1" , according to its measured value. class B

Textbook exercise: identify the category of the compound given here, "CC(=O)O.CC(=O)O.N=C(NCCCCCCNC(=N)NC(=N)Nc1ccc(Cl)cc1)NC(=N)Nc1ccc(Cl)cc1" , according to its measured value. class C

###

So I've got a bunch of compounds here, and I need their boiling point values.
Expressed in °C, but write only the number.

State the recorded boiling point for this entry: "CC(=O)Nc1ccccc1-c1ccccc1" 355

State the recorded boiling point for this entry: "C#CCC(C)C" 61.2

State the recorded boiling point for this entry: "CC1=CCCC(=O)C1" 201

State the recorded boiling point for this entry: COC1CCC(OC)O1 (stereo not drawn) 146

State the recorded boiling point for this entry: "CCCCCCCCCCCCCCN" 291

State the recorded boiling point for this entry: "CCCCCOCC" 118

State the recorded boiling point for this entry: "Cc1cc(C)c(C)c(O)c1C" 247

State the recorded boiling point for this entry: "Cc1cccc(C(C)(C)C)c1" 189

State the recorded boiling point for this entry: "CCc1c(C)cccc1C" 190

State the recorded boiling point for this entry: CCCC(C)Cl (stereo not drawn) 99

State the recorded boiling point for this entry: "CC(=O)C(F)(F)F" 22

State the recorded boiling point for this entry: "C[Si]1(C)O[Si](C)(C)O[Si](C)(C)O[Si](C)(C)O1" 176

State the recorded boiling point for this entry: "CCCCC=CC=O" 166

State the recorded boiling point for this entry: "CCCC=CCC=O" 151

State the recorded boiling point for this entry: C=CC(CC)c1ccccc1 (stereo not drawn) 192

State the recorded boiling point for this entry: "C#CCCCCCCCCCCCCCCCCCC" 340

State the recorded boiling point for this entry: OCC(Cc1ccccc1)c1ccccc1 (stereo not drawn) 310

State the recorded boiling point for this entry: "c1ccc(CNc2ccccc2)cc1" 306

State the recorded boiling point for this entry: "CCN(CC)CCN(CC)CC" 192

State the recorded boiling point for this entry: "CC(C)I" 89.5

State the recorded boiling point for this entry: CC(CCO)CC(F)(F)F (stereo not drawn) 159

State the recorded boiling point for this entry: "CCC(CC)C(=O)O" 194

State the recorded boiling point for this entry: "CC(C)(C)c1cccc(C(C)(C)C)c1O" 253

State the recorded boiling point for this entry: "CP(C)C" 37.5

State the recorded boiling point for this entry: "Cc1cc2ccccc2nc1C" 263

State the recorded boiling point for this entry: "CCN1CCCCC1" 131

State the recorded boiling point for this entry: "Nc1cccc(Oc2ccccc2)c1" 315

State the recorded boiling point for this entry: "FCCCF" 41.6

State the recorded boiling point for this entry: "Clc1ccc(Oc2ccccc2)cc1" 284

State the recorded boiling point for this entry: "CNc1ccc(N)cc1" 258

State the recorded boiling point for this entry: "C=C(C)CCC(=C)C" 114

State the recorded boiling point for this entry: "CCCCCBr" 130

State the recorded boiling point for this entry: "CC(C)C=CCO" 159
